test: in vitro; details: human, uninfected MT-4 cells, CC50 (nM), same protocol as Test A, CellTiter-Glo

{"COMPOUND": "Nc1cc(-c2cccnc2[C@H](Cc2cc(F)cc(F)c2)NC(=O)Cc2c[nH]c3ccc(F)cc23)ccc1F", "PREFIX OPERATOR": "=", "CC50 at 5 days (nM)": 20800}
{"COMPOUND": "Cc1ccccc1-c1cccnc1[C@@H](Cc1ccccc1)NC(=O)Cn1nc(C(F)(F)F)c2c1CCCC2", "PREFIX OPERATOR": "=", "CC50 at 5 days (nM)": 14000}
{"COMPOUND": "CN(C)S(=O)(=O)c1ccc(-c2cccnc2[C@H](Cc2cc(F)cc(F)c2)NC(=O)Cn2nc(C(F)F)c3c2C(F)(F)C2CC32)cc1 (stereo partly shown)", "PREFIX OPERATOR": ">", "CC50 at 5 days (nM)": 53200}
{"COMPOUND": "NC(=O)c1cc(-c2cccnc2[C@H](Cc2cc(F)cc(F)c2)NC(=O)Cn2nc(C(F)(F)F)c3c2CCC3(F)F)ccc1F [Example 535G]", "PREFIX OPERATOR": "=", "CC50 at 5 days (nM)": 25300}
